I'd be grateful if you could share measured GI50 for these entries.
tested on: K562; test: NCI tumour cell line growth inhibition, 48 h
The source made the active and inactive calls. Cut-off read from the data, not from the text of the source: active = GI50 up to about 1.1 µM and inactive = higher.

stdin: Return value of GI50 for input CC1=NOC(=O)/C1=C/c1cccc2ccccc12 , no commentary.
stdout: > 100 µM (inactive)

stdin: Give reported GI50 value for COc1cc(Oc2nc3ccc(C(F)(F)F)cc3nc2-c2ccccc2)cc(OC)c1OC
stdout: 40.5 µM (inactive)

stdin: For the molecule CC(Oc1ccc2c(-c3ccc(Cl)cc3)cc(=O)oc2c1)C(=O)O (stereo unspecified) , give its reported GI50.
stdout: > 100 µM (inactive)

stdin: Respond only with GI50 recorded for CC(C)=CC(=O)CC(=O)C(=O)Nc1ccc(Cl)c(Cl)c1
stdout: > 100 µM (inactive)

stdin: Provide measured GI50 value, entry: COC(=O)C12CCC(C)(C)CC1C1=CCC3C4(C)CC(O)C(O)C(C)(C(=O)OC)C4CCC3(C)C1(CO)CC2 (stereo unspecified)
stdout: 15.6 µM (inactive)

stdin: Determine its reported GI50: Fc1cccc(C2SCC3=Nc4ccccc4CN32)c1 (stereo unspecified)
stdout: 88.9 µM (inactive)

stdin: Output measured GI50 for this item: O=C1CSC2(CC(/C=C/c3cccc(Br)c3)=NN2c2cccc(S(=O)(=O)O)c2)N1c1nc2ccccc2s1 (stereo unspecified)
stdout: 42.8 µM (inactive)

stdin: Check the records and state GI50 for CCOC(=O)/C=C/[C@H](O[Si](c1ccccc1)(c1ccccc1)c1ccccc1)C(C)(C)C
stdout: 7.78 µM (inactive)

stdin: Output measured GI50 for this item: COc1ccc2c(c1)C(=O)N1CCOC1C2C(=O)O (stereo unspecified)
stdout: > 100 µM (inactive)

stdin: Identify measured GI50 corresponding to Fc1ccc2c(c1)cc1ccc3cccc4ccc2c1c34
stdout: > 100 µM (inactive)

stdin: Answer with the recorded GI50 for the molecule listed here: OCC(O)C(O)C(O)c1nn(-c2ccc(F)cc2)c2nc3cc(Cl)c(Cl)cc3nc12 (stereo unspecified)
stdout: 17.6 µM (inactive)

---

tested on: OVCAR-3; test: NCI tumour cell line growth inhibition, 48 h
Activity calls are given as the source filed them. Rule as the data show it: active = GI50 up to about 1.1 µM and inactive = higher.
For each entry below, report its GI50 value.

stdin: Return value of GI50 for input CCCCCCCCC(=O)NCCCNCCCNC(=O)CCCCCCCC , no commentary.
stdout: 15.5 µM (inactive)

stdin: Fill in GI50 for record CC1(C)OC(=O)N(c2ccccc2)C12C=Cc1cc([N+](=O)[O-])cc([N+](=O)[O-])c1O2 (stereo not given)
stdout: 97.7 µM (inactive)

stdin: Find the measured GI50 of COc1ccc(NC(=S)N/N=C\c2ccc(NC(C)=O)cc2)cc1 and report it.
stdout: > 100 µM (inactive)

stdin: Item Cn1ncc2c(Nc3ccc(Cl)cc3)c3ccccc3nc21 : provide GI50
stdout: 18.7 µM (inactive)

stdin: Using the record for COC(=O)C1(Cc2ccccc2)Cc2ccccc2C1 , state its measured GI50.
stdout: > 10 µM (inactive)

---

test system: SF-539; assay: NCI tumour cell line growth inhibition, 48 h
Calls of active or inactive are those of the source. No stated cut-off is given here; in the data, active = GI50 up to about 1.1 µM and inactive = higher.
reported-property: GI50

stdin: Provide measured GI50 on SF-539 for C=C1C(=O)C2=CC1CCC(=O)C1(C)CCC(OC(C)=O)C(C)(C)C1CC2O (stereo not given) please.
stdout: 2.1 µM (inactive)

stdin: Jot down GI50 (SF-539) of O=C1CSC(c2cc3cc(Br)ccc3nc2Cl)N1c1ccc(F)c(Cl)c1 (stereo not given) .
stdout: 17.3 µM (inactive)

stdin: # lookup: SF-539 GI50, key = COc1ccc(OC)c(-c2nc3n(c2/C=C2/C(=O)Nc4ccccc42)CCS3)c1
stdout: 47.9 µM (inactive)

stdin: Name the value of GI50 reported for C=C(C)C(=O)/N=C(\N)NC#N when tested on SF-539.
stdout: 34.8 µM (inactive)

stdin: State the measured GI50 (SF-539) of O=C(Oc1c(Cl)cc(C2(c3cc(Cl)c(OC(=O)c4ccccc4)c(Cl)c3)CCCCC2)cc1Cl)c1ccccc1
stdout: 14.3 µM (inactive)

stdin: Please look at Nc1n[nH]c(Nc2ccc(Cl)cc2)c1P(=O)(c1ccccc1)c1ccccc1 and tell me its recorded GI50 on SF-539.
stdout: 21.8 µM (inactive)

stdin: Find the measured GI50 of OCC(O)C(O)C(O)c1nn(-c2ccc(F)cc2)c2nc3cc(Cl)c(Cl)cc3nc12 (stereo not given) with SF-539 as test system.
stdout: 13.9 µM (inactive)

stdin: Please respond with reported GI50 (system SF-539) for CCN(CC)CC(O)c1ccc2ccc3ccccc3c2c1 (stereo not given) .
stdout: 12.6 µM (inactive)

stdin: Provide SF-539 GI50 reading for O=C(O)CC1NC(/C(=C/c2ccccc2O)NC(=O)c2ccccc2)OC1=O (stereo not given) .
stdout: 22.3 µM (inactive)

stdin: # assay system SF-539: give GI50 of CCN(CC)c1ccc(/C=C/C2=NN(c3cccc(S(=O)(=O)O)c3)C3(C2)C(Cl)C(=O)N3c2nc3ccccc3s2)cc1 (stereo not given)
stdout: 3.32 µM (inactive)

stdin: Specify GI50 for O=C(O)c1cc(/N=N/c2ccc([As](=O)(O)O)cc2)ccc1O , system SF-539.
stdout: > 100 µM (inactive)

stdin: Provide GI50, recorded with SF-539, of NC1CC(=O)c2c(Br)csc21 (stereo not given)
stdout: 35.6 µM (inactive)

stdin: Tell me its GI50 on SF-539: O=C(O)COCC(=O)N(CCOCCN(Cc1ccccc1)C(=O)COCC(=O)O)Cc1ccccc1
stdout: > 100 µM (inactive)

stdin: Name the value of GI50 reported for Cc1csc(NC23CC4CC(CC(C4)C2)C3)[n+]1C(P(=O)([O-])O)P(=O)(O)O (stereo not given) when tested on SF-539.
stdout: > 100 µM (inactive)

stdin: Please respond with reported GI50 (system SF-539) for C=C1C(=O)C23C(CC(OC(C)=O)C1[C@@H]2OC(C)=O)C1(C)C(OC(C)=O)CCC(C)(C)C1C[C@@H]3OC(C)=O (stereo not given in full) .
stdout: 1.76 µM (inactive)

Hey, just so you know, these numbers are from ChEMBL document CHEMBL1201862.
